Target: T1, C-terminal domain from human Rev1 (Rev1-CT) (human, UniProt Q9UBZ9 1158-1251)
T1 sequence (looked up): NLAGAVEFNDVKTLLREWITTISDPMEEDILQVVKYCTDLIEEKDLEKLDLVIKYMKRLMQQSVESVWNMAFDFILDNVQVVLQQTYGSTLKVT
Assay: fluorescence polarisation

BINDER	IC50 [µM]
EMSHKKSFFDKKRSER (peptide, UniProt Q9UBT6 560-575, looked up) [unlabeled Polκ-RIR]	6.6

Values from paper PMC5992617
